Reported EC50 values for a set of compounds
target_under_test: human β3 adrenergic receptor (Homo sapiens, UniProt P13945)
Construct: expressed in transfected cells; host or cells: Chinese hamster ovary (CHO) cells, stably transfected
Sequence (P13945 whole entry): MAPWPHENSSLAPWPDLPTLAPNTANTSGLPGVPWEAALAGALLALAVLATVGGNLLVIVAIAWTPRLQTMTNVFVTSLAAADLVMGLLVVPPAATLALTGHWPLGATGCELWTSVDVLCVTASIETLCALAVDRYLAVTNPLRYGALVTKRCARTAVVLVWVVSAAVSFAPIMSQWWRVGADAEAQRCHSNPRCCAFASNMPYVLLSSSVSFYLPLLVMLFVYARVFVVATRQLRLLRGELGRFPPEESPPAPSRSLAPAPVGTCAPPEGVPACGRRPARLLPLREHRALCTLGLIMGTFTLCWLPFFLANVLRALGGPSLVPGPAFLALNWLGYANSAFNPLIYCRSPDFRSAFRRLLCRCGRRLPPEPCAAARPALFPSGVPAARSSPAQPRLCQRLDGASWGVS
method_notes: Beta-3 agonist in vitro functional assay: cAMP production (LANCE TR-FRET) in CHO cells stably transfected with the cloned β3 receptor
Assay type: cell-based
test_parameters: Table 10; Beta-3 agonist in vitro functional assay; read-out: Human β3 agonist functional activity

compound | parameter_measured | result
CCN(CCO)C(=O)C(C)N1CCN(C(=O)c2ccc(C[C@@H]3CC[C@H]([C@H](O)c4ccccc4)N3)cc2)CC1 (stereo partly shown) [Example 520] | EC50 | 10 to 99.9 nM
CC(C(=O)N1CCC(C2CC2)CC1)N1CCN(C(=O)c2ccc(C[C@@H]3CC[C@H]([C@H](O)c4ccccc4)N3)cc2)CC1 (stereo partly shown) [Example 494] | EC50 | 10 to 99.9 nM
CC(C)[C@@H](C)NC(=O)C(C)N1CCN(C(=O)c2ccc(C[C@@H]3CC[C@H]([C@H](O)c4ccccc4)N3)cc2)CC1 (stereo partly shown) [Example 441] | EC50 | 10 to 99.9 nM
CCN(C(=O)C(C)N1CCN(C(=O)c2ccc(C[C@@H]3CC[C@H]([C@H](O)c4ccccc4)N3)cc2)CC1)C(C)C (stereo partly shown) [Example 515] | EC50 | 10 to 99.9 nM
CC(C(=O)N1CC[C@H](F)C1)N1CCN(C(=O)c2ccc(C[C@@H]3CC[C@H]([C@H](O)c4ccccc4)N3)cc2)CC1 (stereo partly shown) [Example 475] | EC50 | 1 to 9.9 nM
CC(C(=O)NC1CCNC1=O)N1CCN(C(=O)c2ccc(C[C@@H]3CC[C@H]([C@H](O)c4ccccc4)N3)cc2)CC1 (stereo partly shown) [Example 458] | EC50 | 100 to 999 nM

Challenge: Give EC50 (human β3 adrenergic receptor (Homo sapiens, UniProt P13945)) of the following compound: CCC(C)(C)NC(=O)C(C)N1CCN(C(=O)c2ccc(C[C@@H]3CC[C@H]([C@H](O)c4ccccc4)N3)cc2)CC1 (stereo partly shown) [Example 439]
Response given: 1 to 9.9 nM

Challenge: Cool, now CC(C(=O)NC(C1CC1)C1CC1)N1CCN(C(=O)c2ccc(C[C@@H]3CC[C@H]([C@H](O)c4ccccc4)N3)cc2)CC1 (stereo partly shown) [Example 451]
Response given: 10 to 99.9 nM

Reference for the values: patent US8354403B2
